These entries and their values trace back to ChEMBL document CHEMBL3045601.

Measured MIC accompanies every entry in the list below.
test system: Streptococcus pyogenes; test: Antibacterial activity against Streptococcus pyogenes MTCC 442 assessed as growth inhibition after 24 hr by NCCLS broth microdilution method; format: functional; conditions: MTCC 442, 24 h
Hey, just the number and the unit after it is fine.

Examples from the recorded data:
[[record]]
compound = "Cc1ccc2nc(Cl)c(C3CC(c4cccc([N+](=O)[O-])c4)=NN3C3=NC(=O)CS3)cc2c1 (stereo not given)"
reported = "500 µg/mL"

[[record]]
compound = "Cc1ccc2nc(Cl)c(C3CC(c4ccc([N+](=O)[O-])cc4)=NN3C3=NC(=O)CS3)cc2c1 (stereo not given)"
reported = "50 µg/mL"

[[record]]
compound = "Cc1ccc2nc(Cl)c(C3CC(c4ccc(F)cc4)=NN3C3=NC(=O)CS3)cc2c1 (stereo not given)"
reported = "25 µg/mL"

[[record]]
compound = "Cc1ccc2nc(Cl)c(C3CC(c4ccccc4)=NN3C3=NC(=O)CS3)cc2c1 (stereo not given)"
reported = "500 µg/mL"


Query :: Entry under review: `CC1(C)S[C@@H]2[C@H](NC(=O)[C@H](N)c3ccccc3)C(=O)N2[C@H]1C(=O)O` . Reported MIC?
Result :: 100 µg/mL

* * *

The entries below come with measured MIC values attached.
system: Aspergillus niger; test: Antifungal activity against Aspergillus niger MTCC 282 assessed as growth inhibition after 48 hr by NCCLS broth microdilution method; type: functional; settings: MTCC 282, 48 h
A number alone suffices; assume µg/mL.

Examples from the recorded data:
[[record]]
compound = "COC1=CC(=O)C[C@@H](C)[C@]12Oc1c(Cl)c(OC)cc(OC)c1C2=O"
reported = 100

[[record]]
compound = "COc1ccc(C2=NN(C3=NC(=O)CS3)C(c3cc4cc(C)ccc4nc3Cl)C2)cc1 (stereo not drawn)"
reported = 500


Query :: // MIC lookup, key: Cc1ccc2nc(Cl)c(C3CC(c4ccccc4O)=NN3C3=NC(=O)CS3)cc2c1 (stereo not drawn)
Result :: 500

Query :: Which value of MIC has been reported for Cc1ccc2nc(Cl)c(C3CC(c4cccc(F)c4)=NN3C3=NC(=O)CS3)cc2c1 (stereo not drawn) in the records?
Result :: 500

Query :: State the recorded MIC for this entry: Cc1ccc2nc(Cl)c(C3CC(c4ccccc4[N+](=O)[O-])=NN3C3=NC(=O)CS3)cc2c1 (stereo not drawn)
Result :: 50

Query :: I am curious: what MIC value has been reported for Cc1ccc2nc(Cl)c(C3CC(c4ccccc4Cl)=NN3C3=NC(=O)CS3)cc2c1 (stereo not drawn) ?
Result :: 50

Query :: Consider the compound shown here: Cc1ccc2nc(Cl)c(C3CC(c4ccc(O)cc4)=NN3C3=NC(=O)CS3)cc2c1 (stereo not drawn) What is its recorded MIC?
Result :: 1000

Query :: Can you share its MIC? I mean this compound: Cc1ccc2nc(Cl)c(C3CC(c4ccccc4)=NN3C3=NC(=O)CS3)cc2c1 (stereo not drawn)
Result :: 500

* * *

test system: Streptococcus pyogenes; test: Antibacterial activity against Streptococcus pyogenes MTCC 442 assessed as growth inhibition after 24 hr by NCCLS broth microdilution method; type: functional; details: MTCC 442, 24 h
MEASURED PARAMETER: log10(MIC) (log10 of the value in µg/mL)
Short version: log10 scale, MIC, µg/mL.

Before answering, review these 7 worked examples.
[[record]]
compound = "Cc1ccc2nc(Cl)c(C3CC(c4ccc(Cl)cc4)=NN3C3=NC(=O)CS3)cc2c1 (stereo not drawn)"
reported = 1.70

[[record]]
compound = "Cc1ccc2nc(Cl)c(C3CC(c4ccc(O)cc4)=NN3C3=NC(=O)CS3)cc2c1 (stereo not drawn)"
reported = 2.40

[[record]]
compound = "Cc1ccc2nc(Cl)c(C3CC(c4cccc(F)c4)=NN3C3=NC(=O)CS3)cc2c1 (stereo not drawn)"
reported = 2.00

[[record]]
compound = "Cc1ccc2nc(Cl)c(C3CC(c4ccccc4Cl)=NN3C3=NC(=O)CS3)cc2c1 (stereo not drawn)"
reported = 1.70

[[record]]
compound = "Cc1ccc2nc(Cl)c(C3CC(c4ccccc4[N+](=O)[O-])=NN3C3=NC(=O)CS3)cc2c1 (stereo not drawn)"
reported = 1.40

[[record]]
compound = "Cc1ccc2nc(Cl)c(C3CC(c4ccccc4O)=NN3C3=NC(=O)CS3)cc2c1 (stereo not drawn)"
reported = 2.40

[[record]]
compound = "Cc1ccc2nc(Cl)c(C3CC(c4ccccc4F)=NN3C3=NC(=O)CS3)cc2c1 (stereo not drawn)"
reported = 2.70


Please look at the following compound next.
Query :: // returns reported log10(MIC) for input COc1ccc(C2=NN(C3=NC(=O)CS3)C(c3cc4cc(C)ccc4nc3Cl)C2)cc1 (stereo not drawn)
Result :: 2.70

* * *

test system: Escherichia coli; test: Antibacterial activity against Escherichia coli MTCC 443 assessed as growth inhibition after 24 hr by NCCLS broth microdilution method; assay type: functional; settings: MTCC 443, 24 h
For each record, check the reported MIC: if it is below 200 µg/mL write YES, else write NO.

Some solved entries appear below for comparison.
[[record]]
compound = "COc1ccc(C2=NN(C3=NC(=O)CS3)C(c3cc4cc(C)ccc4nc3Cl)C2)cc1 (stereo not drawn)"
system_tested = "Escherichia coli"
class = "NO"

[[record]]
compound = "Cc1ccc2nc(Cl)c(C3CC(c4ccc(F)cc4)=NN3C3=NC(=O)CS3)cc2c1 (stereo not drawn)"
system_tested = "Escherichia coli"
class = "YES"


Would you kindly look at the next entry?
Query :: Please determine if Cc1ccc2nc(Cl)c(C3CC(c4ccccc4O)=NN3C3=NC(=O)CS3)cc2c1 (stereo not drawn) is below 200 µg/mL in terms of MIC.
Result :: NO

* * *

tested on: Staphylococcus aureus; test: Antibacterial activity against Staphylococcus aureus MTCC 96 assessed as growth inhibition after 24 hr by NCCLS broth microdilution method; assay type: functional; details: MTCC 96, 24 h
MEASURED PARAMETER: MIC (µg/mL)
Please state the figure in µg/mL; there is no need to write the unit.

Solved cases (6 shown):
[[record]]
molecule = "Cc1ccc2nc(Cl)c(C3CC(c4ccc(Cl)cc4)=NN3C3=NC(=O)CS3)cc2c1 (stereo not drawn)"
reported = 50

[[record]]
molecule = "Cc1ccc2nc(Cl)c(C3CC(c4ccccc4)=NN3C3=NC(=O)CS3)cc2c1 (stereo not drawn)"
reported = 250

[[record]]
molecule = "Cc1ccc2nc(Cl)c(C3CC(c4ccccc4[N+](=O)[O-])=NN3C3=NC(=O)CS3)cc2c1 (stereo not drawn)"
reported = 250

[[record]]
molecule = "Cc1ccc2nc(Cl)c(C3CC(c4ccc([N+](=O)[O-])cc4)=NN3C3=NC(=O)CS3)cc2c1 (stereo not drawn)"
reported = 100

[[record]]
molecule = "Cc1ccc2nc(Cl)c(C3CC(c4cccc(F)c4)=NN3C3=NC(=O)CS3)cc2c1 (stereo not drawn)"
reported = 500

[[record]]
molecule = "COc1ccc(C2=NN(C3=NC(=O)CS3)C(c3cc4cc(C)ccc4nc3Cl)C2)cc1 (stereo not drawn)"
reported = 500


Query :: # get_value(readout= MIC, system= Staphylococcus aureus) for Cc1ccc2nc(Cl)c(C3CC(c4ccccc4O)=NN3C3=NC(=O)CS3)cc2c1 (stereo not drawn)
Result :: 500

Query :: Write down the reported MIC of Cc1ccc2nc(Cl)c(C3CC(c4ccc(F)cc4)=NN3C3=NC(=O)CS3)cc2c1 (stereo not drawn) , test system: Staphylococcus aureus.
Result :: 100

Query :: Missing value: MIC, Staphylococcus aureus, entry Cc1ccc2nc(Cl)c(C3CC(c4ccc(O)cc4)=NN3C3=NC(=O)CS3)cc2c1 (stereo not drawn) . Fill in?
Result :: 500

Query :: Lab note: need MIC with Staphylococcus aureus for entry Cc1ccc2nc(Cl)c(C3CC(c4ccccc4Cl)=NN3C3=NC(=O)CS3)cc2c1 (stereo not drawn) , please look it up.
Result :: 250

Query :: Notebook: pull reported MIC for Staphylococcus aureus, entry Cc1ccc2nc(Cl)c(C3CC(c4ccccc4F)=NN3C3=NC(=O)CS3)cc2c1 (stereo not drawn)
Result :: 100

Query :: Recorded MIC for Cc1ccc2nc(Cl)c(C3CC(c4cccc([N+](=O)[O-])c4)=NN3C3=NC(=O)CS3)cc2c1 (stereo not drawn) with Staphylococcus aureus, please?
Result :: 500

Query :: Hello, I am looking for reported MIC with Staphylococcus aureus for CC1(C)S[C@@H]2[C@H](NC(=O)[C@H](N)c3ccccc3)C(=O)N2[C@H]1C(=O)O [AMPICILLIN] . Could you help?
Result :: 250

* * *

The following compounds are listed with their measured MIC values.
system: Aspergillus niger; assay: Antifungal activity against Aspergillus niger MTCC 282 assessed as growth inhibition after 48 hr by NCCLS broth microdilution method; format: functional; details: MTCC 282, 48 h
Output spec: scalar in µg/mL, unitless text.

Answered cases to consult:
[[record]]
compound = "Cc1ccc2nc(Cl)c(C3CC(c4ccc(Cl)cc4)=NN3C3=NC(=O)CS3)cc2c1 (stereo not given)"
measured_parameter = "MIC"
unit_abbreviation = "µg/mL"
reported = 100

[[record]]
compound = "Cc1ccc2nc(Cl)c(C3CC(c4ccc([N+](=O)[O-])cc4)=NN3C3=NC(=O)CS3)cc2c1 (stereo not given)"
measured_parameter = "MIC"
unit_abbreviation = "µg/mL"
reported = 25

[[record]]
compound = "Cc1ccc2nc(Cl)c(C3CC(c4cccc([N+](=O)[O-])c4)=NN3C3=NC(=O)CS3)cc2c1 (stereo not given)"
measured_parameter = "MIC"
unit_abbreviation = "µg/mL"
reported = 100

[[record]]
compound = "Cc1ccc2nc(Cl)c(C3CC(c4ccc(F)cc4)=NN3C3=NC(=O)CS3)cc2c1 (stereo not given)"
measured_parameter = "MIC"
unit_abbreviation = "µg/mL"
reported = 250


Query :: Give its MIC value. Item: Cc1ccc2nc(Cl)c(C3CC(c4ccccc4F)=NN3C3=NC(=O)CS3)cc2c1 (stereo not given)
Result :: 50
